# Assay comment: Compound 1 in plasma and ocular tissue following topical administration
# Assay type: in vivo, male hypertensive New Zealand White Rabbit
# Reported conditions: male, New Zealand White, rabbit, topical or ocular; topical administration, 60 μg/eye, 5% (2-Hydroxypropyl)-β-cyclodextrin in PBS pH 7.4; aqueous humor; LC-MS/MS; read-out: AUC0-24hr in the aqueous humor
Measure: AUC(0-t) (ng·h/mL)
Response body: numeric value in ng·h/mL, unit text excluded.

Inquiry: Given CN1C(=O)c2c(nn(Cc3ccc(-c4ccccn4)cc3)c2Nc2ccccc2)N2C1=N[C@@H]1CCC[C@@H]12 [Compound 1] , state its recorded AUC(0-t).
Reply text: 866
